# target or system: recombinant human OX40 fused to a His-tag (Acro Biosystems, cat. no. OX0-H5224) (human) (UniProt P43489)
# Sequence (P43489 29-214 limits assumed): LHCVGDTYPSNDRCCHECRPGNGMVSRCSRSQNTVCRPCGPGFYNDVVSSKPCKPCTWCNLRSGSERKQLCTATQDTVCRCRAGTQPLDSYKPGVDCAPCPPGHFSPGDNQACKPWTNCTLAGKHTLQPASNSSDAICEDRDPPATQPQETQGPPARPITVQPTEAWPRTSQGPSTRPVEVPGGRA
# protocol: BLI cross-block; first Ab (competitor): IgG1-CD134-A4453

binder	association response, nm
IgG1-CD134-RG7888 (antibody, INN chains, looked up, V domains shown, IgG1) VH: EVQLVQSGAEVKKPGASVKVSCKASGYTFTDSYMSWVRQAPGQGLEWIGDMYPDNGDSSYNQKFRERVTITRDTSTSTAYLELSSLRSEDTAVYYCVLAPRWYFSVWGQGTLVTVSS VL: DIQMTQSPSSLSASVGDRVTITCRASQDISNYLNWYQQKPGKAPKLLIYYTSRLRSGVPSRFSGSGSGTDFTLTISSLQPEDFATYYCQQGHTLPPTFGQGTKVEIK	0.47
